EXPERIMENTAL_TARGET: T1, His-labeled human CD3E (human, UniProt P07766 23-126)
T1 construct: also called human CD3E antigen; antigen CD3E; not shown: His label
T1 sequence (P07766 23-126): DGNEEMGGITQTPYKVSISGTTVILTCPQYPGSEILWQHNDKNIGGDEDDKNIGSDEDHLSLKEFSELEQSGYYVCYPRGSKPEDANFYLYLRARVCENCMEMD
TEST_SUMMARY: BLI (Octet), method of Example 3: His-labeled human CD3E on Ni-NTA sensors
Lab note - cut at 0.0002 s⁻¹ for koff: Criterion met if strictly below, Criterion not met if not.

Reference set (5 entries):
Incoming: Take the binder humanized antibody AB617 (antibody, V domains shown) VH: EVQLLESGGGLVQPGGSLKLSCAASGFTFNDYAMNWVRQAPGKGLEWVGRIRSKINNYATYYADSVKDRFTISRDDSKNTAYLQMNNLKTEDTAMYYCVRHDNFYGSTYSWFADWGQGTLVTVSS VL: ELVVTQEPSLTVSPGGTVTLTCRSSTGVVTTSNYANWVQEKPDHLFTGLIGATNYRAPGTPARFSGSLLGGKAALTLSGVQPEDEAIYFCVLWYSNHWVFGGGTKLTVL and say whether its koff is less than 0.0002 s⁻¹.
Outgoing: Criterion not met

Incoming: Take the binder humanized antibody AB615 (antibody, V domains shown) VH: EVQLLESGGGLVQPGGSLKLSCAASGFDFNTYAMNWVRQAPGKGLEWVGRIRSKINNYATYYADSVKDRFTISRDDSKNTAYLQMNNLKTEDTAMYYCVRHDNFYGSTYSWFADWGQGTLVTVSS VL: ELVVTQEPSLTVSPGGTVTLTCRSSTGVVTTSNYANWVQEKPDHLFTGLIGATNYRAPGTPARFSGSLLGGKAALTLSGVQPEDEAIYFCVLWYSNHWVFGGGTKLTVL and say whether its koff is less than 0.0002 s⁻¹.
Outgoing: Criterion met

Incoming: Take the binder humanized antibody AB621 (antibody, V domains shown) VH: EVQLLESGGGLVQPGGSLKLSCAASGFTFNTYAMNWVRQAPGKGLEWVGRIRSKINNYATYYADSVKDRFTISRDDSKNTAYLQMNNLKTEDTAMYYCVRHDNFYGSTYSWFADWGQGTLVTVSS VL: ELVVTQEPSLTVSPGGTVTLTCRSSTGVVTTSNHANWVQEKPDHLFTGLIGATNYRAPGTPARFSGSLLGGKAALTLSGVQPEDEAIYFCVLWYSNHWVFGGGTKLTVL and say whether its koff is less than 0.0002 s⁻¹.
Outgoing: Criterion not met

Incoming: Take the binder humanized antibody AB627 (antibody, V domains shown) VH: EVQLLESGGGLVQPGGSLKLSCAASGFTFNTYAMNWVRQAPGKGLEWVGRIRSKINNYATYYADSVKDRFTISRDDSKNTAYLQMNNLKTEDTAMYYCVRHDNFYGSTYSWHADWGQGTLVTVSS VL: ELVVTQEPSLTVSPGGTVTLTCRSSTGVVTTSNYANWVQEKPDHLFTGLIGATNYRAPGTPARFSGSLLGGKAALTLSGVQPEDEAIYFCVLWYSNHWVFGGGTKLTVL and say whether its koff is less than 0.0002 s⁻¹.
Outgoing: Criterion met

Incoming: Take the binder humanized antibody AB625 (antibody, V domains shown) VH: EVQLLESGGGLVQPGGSLKLSCAASGFTFNTYAMNWVRQAPGKGLEWVGRIRSKINNYATYYADSVKDRFTISRDDSKNTAYLQMNNLKTEDTAMYYCVRHDNFYGSTHSWFADWGQGTLVTVSS VL: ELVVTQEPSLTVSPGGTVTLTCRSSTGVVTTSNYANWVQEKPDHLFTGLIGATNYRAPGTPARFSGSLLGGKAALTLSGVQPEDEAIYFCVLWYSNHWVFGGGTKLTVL and say whether its koff is less than 0.0002 s⁻¹.
Outgoing: Criterion not met

Continuing:
Incoming: Take the binder humanized antibody AB618 (antibody, V domains shown) VH: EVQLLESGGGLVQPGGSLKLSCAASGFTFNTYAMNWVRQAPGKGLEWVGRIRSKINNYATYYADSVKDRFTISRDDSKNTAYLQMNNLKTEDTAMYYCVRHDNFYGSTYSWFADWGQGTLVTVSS VL: ELVVTQEPSLTVSPGGTVTLTCRSSTGVVTTSNYANWVQEKPDHLFTGLIGDTNYRAPGTPARFSGSLLGGKAALTLSGVQPEDEAIYFCVLWYSNHWVFGGGTKLTVL and say whether its koff is less than 0.0002 s⁻¹.
Outgoing: Criterion met

Incoming: Take the binder humanized antibody AB619 (antibody, V domains shown) VH: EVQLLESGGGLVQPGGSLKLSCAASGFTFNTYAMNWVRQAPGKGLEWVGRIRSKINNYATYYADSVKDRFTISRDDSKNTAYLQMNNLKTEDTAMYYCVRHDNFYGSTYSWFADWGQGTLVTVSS VL: ELVVTQEPSLTVSPGGTVTLTCRSSTGVVTTSNYANWVQEKPDHLFTGLIGATDYRAPGTPARFSGSLLGGKAALTLSGVQPEDEAIYFCVLWYSNHWVFGGGTKLTVL and say whether its koff is less than 0.0002 s⁻¹.
Outgoing: Criterion met

Incoming: Take the binder humanized antibody AB622 (antibody, V domains shown) VH: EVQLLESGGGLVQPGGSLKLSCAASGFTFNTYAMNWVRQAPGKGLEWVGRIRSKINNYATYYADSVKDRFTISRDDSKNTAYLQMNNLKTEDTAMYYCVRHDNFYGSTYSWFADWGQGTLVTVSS VL: ELVVTQEPSLTVSPGGTVTLTCRSSTGVVTTSNYANWVQEKPDHLFTGLIGATNHRAPGTPARFSGSLLGGKAALTLSGVQPEDEAIYFCVLWYSNHWVFGGGTKLTVL and say whether its koff is less than 0.0002 s⁻¹.
Outgoing: Criterion not met

Incoming: Take the binder humanized antibody AB626 (antibody, V domains shown) VH: EVQLLESGGGLVQPGGSLKLSCAASGFTFNTYAMNWVRQAPGKGLEWVGRIRSKINNYATYYADSVKDRFTISRDDSKNTAYLQMNNLKTEDTAMYYCVRHDNFYGSTYSHFADWGQGTLVTVSS VL: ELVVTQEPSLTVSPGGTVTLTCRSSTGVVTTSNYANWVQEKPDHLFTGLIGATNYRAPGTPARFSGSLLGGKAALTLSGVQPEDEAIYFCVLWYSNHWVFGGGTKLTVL and say whether its koff is less than 0.0002 s⁻¹.
Outgoing: Criterion not met

Incoming: Take the binder humanized antibody AB616 (antibody, V domains shown) VH: EVQLLESGGGLVQPGGSLKLSCAASGFTFDTYAMNWVRQAPGKGLEWVGRIRSKINNYATYYADSVKDRFTISRDDSKNTAYLQMNNLKTEDTAMYYCVRHDNFYGSTYSWFADWGQGTLVTVSS VL: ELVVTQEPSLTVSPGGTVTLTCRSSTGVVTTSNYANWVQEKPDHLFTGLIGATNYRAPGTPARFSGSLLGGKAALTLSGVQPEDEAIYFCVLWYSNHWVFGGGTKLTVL and say whether its koff is less than 0.0002 s⁻¹.
Outgoing: Criterion met
